Target Or System: Human M4 (Homo sapiens, UniProt P08173)
Construct: Human or rat M4 cDNA, along with the chimeric G protein Gqi5, were transfected into Chinese hamster ovary (CHO-K1) cells; expressed in transfected cells; host or cells: CHO-K1 (Chinese hamster ovary, ATCC), stably co-expressing Gqi5
Sequence (P08173 1-479): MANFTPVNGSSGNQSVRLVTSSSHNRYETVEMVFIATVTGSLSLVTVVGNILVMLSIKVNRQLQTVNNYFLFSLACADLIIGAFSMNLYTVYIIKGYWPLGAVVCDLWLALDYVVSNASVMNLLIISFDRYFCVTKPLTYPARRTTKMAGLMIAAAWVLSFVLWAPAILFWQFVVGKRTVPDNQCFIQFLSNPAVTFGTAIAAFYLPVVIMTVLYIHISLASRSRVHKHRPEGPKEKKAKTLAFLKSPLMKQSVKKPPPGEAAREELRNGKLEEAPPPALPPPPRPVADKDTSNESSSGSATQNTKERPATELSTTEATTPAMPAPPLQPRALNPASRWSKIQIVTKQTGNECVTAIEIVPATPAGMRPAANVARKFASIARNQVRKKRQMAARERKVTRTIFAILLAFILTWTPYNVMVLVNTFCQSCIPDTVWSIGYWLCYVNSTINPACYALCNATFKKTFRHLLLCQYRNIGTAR
Experiment Description: mAChR M4 cell-based functional assay (calcium flux, decrease of EC80 acetylcholine response)
Measurement Context: % ACh maximum at 30 μM; read-out: Human M4 Emin
Test Readout: remaining activity at 30 µM (%)

# Compound, Test Readout, Data Value
data = [
    ("Cc1ccc(F)cc1-c1cc(C(F)(F)F)c(N[C@H]2C[C@@H]3CN(C[C@H]4COCCO4)C[C@@H]3C2)nn1", "remaining activity at 30 µM", 3),
    ("[2H]C([2H])(C1CCOCC1)N1C[C@H]2C[C@H](Nc3nnc(-c4cc(F)c(F)cc4F)cc3C(F)(F)F)C[C@H]2C1", "remaining activity at 30 µM", 4),
    ("[2H]C([2H])([C@H]1CCOC1)N1C[C@H]2C[C@H](Nc3nnc(-c4cc(C)ccc4C)cc3C(F)(F)F)C[C@H]2C1", "remaining activity at 30 µM", 3),
    ("Cc1ccc(C(F)(F)F)cc1-c1cc(C(F)(F)F)c(N[C@H]2C[C@@H]3CN(CC4CCOCC4)C[C@@H]3C2)nn1", "remaining activity at 30 µM", 3),
    ("CN1Cc2cc(-c3cc(C(F)(F)F)c(N[C@H]4C[C@@H]5CN(CC6CCOCC6)C[C@@H]5C4)nn3)ccc2C1=O", "remaining activity at 30 µM", 4),
    ("CCOc1ccc(-c2cc(C(F)(F)F)c(N[C@H]3C[C@@H]4CN(CC5CCOCC5)C[C@@H]4C3)nn2)c(C)c1", "remaining activity at 30 µM", 3),
    ("Cc1ccc(F)cc1-c1cc(C#N)c(N[C@H]2C[C@@H]3CN(C[C@H]4CC5CCC4O5)C[C@@H]3C2)nn1 (stereo partly shown)", "remaining activity at 30 µM", 2),
    ("Cc1ccc(F)cc1-c1cc(C#N)c(N[C@H]2C[C@@H]3CN(C[C@@H]4COCCO4)C[C@@H]3C2)nn1", "remaining activity at 30 µM", 3),
    ("Cn1cc2cc(-c3cc(C(F)(F)F)c(N[C@H]4C[C@@H]5CN(C[C@@H]6CC7CCC6O7)C[C@@H]5C4)nn3)ccc2n1 (stereo partly shown)", "remaining activity at 30 µM", 4),
    ("[2H]C([2H])(C1CCOCC1)N1C[C@H]2C[C@H](Nc3nnc(-c4ccc(OC)cc4C)cc3C(F)(F)F)C[C@H]2C1", "remaining activity at 30 µM", 3),
    ("Fc1ccc(C(F)(F)F)cc1-c1cc(C(F)(F)F)c(N[C@H]2C[C@@H]3CN(CC4CCOCC4)C[C@@H]3C2)nn1", "remaining activity at 30 µM", 4),
    ("[2H][C@@]1(Oc2cc(C(F)(F)F)c(-c3cc(F)ccc3C)nn2)C[C@H]2CN(CC3CCOCC3)C[C@H]2C1", "remaining activity at 30 µM", 3),
    ("Cc1ccc(F)cc1-c1cc(C(F)(F)F)c(N[C@H]2C[C@@H]3CN(C[C@@H]4CCOC4)C[C@@H]3C2)nn1", "remaining activity at 30 µM", 4),
    ("Cc1ccncc1-c1cc(C(F)(F)F)c(N[C@H]2C[C@@H]3CN(CC4CCOCC4)C[C@@H]3C2)nn1", "remaining activity at 30 µM", 3),
    ("FC(F)(F)c1cc(N2CCCC2)nnc1N[C@H]1C[C@@H]2CN(CC3CCOCC3)C[C@@H]2C1", "remaining activity at 30 µM", 2),
    ("[2H]C([2H])(C1CCOCC1)N1C[C@H]2C[C@H](Nc3nnc(-c4ccc5c(c4)ncn5C)cc3C(F)(F)F)C[C@H]2C1", "remaining activity at 30 µM", 3),
    ("Cc1ccc(F)cc1-c1cc(C(F)(F)F)c(N[C@H]2C[C@@H]3CN(CC4CCCCO4)C[C@@H]3C2)nn1 (single isomer, unassigned)", "remaining activity at 30 µM", 3),
    ("Cc1cc(-c2cc(C(F)(F)F)c(N[C@H]3C[C@@H]4CN(CC5CCOCC5)C[C@@H]4C3)nn2)c(C)cc1F", "remaining activity at 30 µM", 3),
    ("Fc1ccc(Cl)c(-c2nnc(N[C@H]3C[C@@H]4CN(CC5CCOCC5)C[C@@H]4C3)cc2C(F)(F)F)c1", "remaining activity at 30 µM", 3),
    ("[2H][C@@]1(Oc2nnc(-c3cc(F)ccc3C)cc2C(F)(F)F)C[C@H]2CN(CC3CCOCC3)C[C@H]2C1", "remaining activity at 30 µM", 4),
    ("FC(F)(F)c1cc(-c2ccccc2)nnc1N[C@H]1C[C@@H]2CN(Cc3ccccn3)C[C@@H]2C1", "remaining activity at 30 µM", 4),
    ("Fc1ccccc1-c1cc(C(F)(F)F)c(N[C@H]2C[C@@H]3CN(Cc4ccccn4)C[C@@H]3C2)nn1", "remaining activity at 30 µM", 3),
    ("Fc1ccc(F)c(-c2cc(C(F)(F)F)c(N[C@H]3C[C@@H]4CN(C[C@H]5COCCO5)C[C@@H]4C3)nn2)c1", "remaining activity at 30 µM", 3),
    ("C[C@H]1CCCN(c2cc(C(F)(F)F)c(N[C@H]3C[C@@H]4CN(CC5CCOCC5)C[C@@H]4C3)nn2)C1", "remaining activity at 30 µM", 2),
    ("[2H]C([2H])(C1CCOCC1)N1C[C@H]2C[C@H](Nc3nnc(-c4ccc(F)cc4C)cc3C(F)(F)F)C[C@H]2C1", "remaining activity at 30 µM", 3),
]

---

Target Or System: Human M4 (Homo sapiens, UniProt P08173)
Construct: Human or rat M4 cDNA, along with the chimeric G protein Gqi5, were transfected into Chinese hamster ovary (CHO-K1) cells
Experiment Description: mAChR M4 cell-based functional assay (calcium flux, decrease of EC80 acetylcholine response)
Measurement Context: M4/Gqi5/CHO-K1 cells; decrease of response to EC80 acetylcholine
Test Readout: log10 IC50 (log10 of the value in nM)

# Compound, log10 IC50
records = [
    ("[2H]C([2H])(C1CCOCC1)N1C[C@H]2C[C@H](Nc3nnc(-c4ccc5c(cnn5C)c4)cc3C(F)(F)F)C[C@H]2C1", 1.85),
    ("Cn1cc2cc(-c3cc(C(F)(F)F)c(N[C@H]4C[C@@H]5CN(Cc6ccccn6)C[C@@H]5C4)nn3)ccc2n1", 2.44),
    ("Cn1cc2cc(-c3cnc(N[C@H]4C[C@@H]5CN(CCC(C)(C)C)C[C@@H]5C4)nc3)ccc2n1", 2.60),
    ("Cn1cc2cc(-c3cc(C#N)c(N[C@H]4C[C@@H]5CN(C[C@H]6CC7CCC6O7)C[C@@H]5C4)nn3)ccc2n1 (stereo partly drawn)", 0.30),
    ("Fc1ccc(C(F)(F)F)c(-c2cc(C(F)(F)F)c(N[C@H]3C[C@@H]4CN(CC5CCOCC5)C[C@@H]4C3)nn2)c1", 1.55),
    ("COc1c(F)cc(-c2cc(C(F)(F)F)c(N[C@H]3C[C@@H]4CN(CC5CCOCC5)C[C@@H]4C3)nn2)cc1F", 2.23),
]

---

Target Or System: Human M4 (Homo sapiens)
Construct: Human or rat M4 cDNA, along with the chimeric G protein Gqi5, were transfected into Chinese hamster ovary (CHO-K1) cells
Experiment Description: mAChR M4 cell-based functional assay (calcium flux, decrease of EC80 acetylcholine response)
Measurement Context: M4/Gqi5/CHO-K1 cells; decrease of response to EC80 acetylcholine
pIC50: −log10 of the molar value.

# Compound, pIC50
rows = [
    ("Cc1ccc(F)cc1-c1cc(C(F)(F)F)c(N[C@H]2C[C@@H]3CN(CC4CCCOC4)C[C@@H]3C2)nn1 (single isomer, unassigned) [Example 121]", 8.00),
    ("[2H]C([2H])(C1CCOCC1)N1C[C@H]2C[C@H](Nc3nnc(-c4cc(F)cc(F)c4F)cc3C(F)(F)F)C[C@H]2C1 [Example 124]", 6.76),
    ("FC1(F)CCN(c2cc(C(F)(F)F)c(N[C@H]3C[C@@H]4CN(CC5CCOCC5)C[C@@H]4C3)nn2)C1 [Example 141]", 8.08),
    ("Cc1ccc(F)cc1-c1cc(C(F)(F)F)c(N[C@H]2C[C@@H]3CN(C[C@@H]4CCOC4)C[C@@H]3C2)nn1 [Example 30]", 7.25),
    ("Cc1ccc(F)cc1-c1cc(C#N)c(N[C@H]2C[C@@H]3CN(C[C@H]4CCOC4)C[C@@H]3C2)nn1 [Example 152]", 7.83),
    ("Cn1cc2cc(-c3cc(C(F)(F)F)c(N[C@H]4C[C@@H]5CN(C[C@@H]6COCCO6)C[C@@H]5C4)nn3)ccc2n1 [Example 35]", 6.83),
    ("Cc1cc(C)cc(-c2cc(C(F)(F)F)c(N[C@H]3C[C@@H]4CN(Cc5ccccn5)C[C@@H]4C3)nn2)c1 [Example 104]", 6.48),
    ("Cc1cc(-c2cc(C(F)(F)F)c(N[C@H]3C[C@@H]4CN(CC5CCOCC5)C[C@@H]4C3)nn2)c(F)cc1F [Example 92]", 6.47),
    ("N#Cc1cc(-c2cc(F)ccc2Cl)nnc1N[C@H]1C[C@@H]2CN(CC3CCOCC3)C[C@@H]2C1 [Example 145]", 8.85),
    ("Cc1cnc(F)cc1-c1cc(C(F)(F)F)c(N[C@H]2C[C@@H]3CN(CC4CCOCC4)C[C@@H]3C2)nn1 [Example 113]", 8.21),
    ("Cc1ccc(F)cc1-c1cc(C(F)(F)F)c(N[C@H]2C[C@@H]3CN(CC4(F)CCOCC4)C[C@@H]3C2)nn1 [Example 23]", 7.63),
    ("Cn1cc2cc(-c3nnc(N[C@H]4C[C@@H]5CN(CC6CCOCC6)C[C@@H]5C4)cc3C(F)(F)F)ccc2n1 [Example 1]", 8.25),
    ("COc1ccccc1-c1cc(C(F)(F)F)c(N[C@H]2C[C@@H]3CN(CC4CCOCC4)C[C@@H]3C2)nn1 [Example 64]", 7.27),
    ("Cc1ccc(F)cc1-c1cc(C(F)(F)F)c(N[C@H]2C[C@@H]3CN(C[C@H]4CC5CCC4O5)C[C@@H]3C2)nn1 (some centres unmarked) [Example 25]", 7.95),
    ("C[C@H]1CCCN(c2cc(C(F)(F)F)c(N[C@H]3C[C@@H]4CN(CC5CCOCC5)C[C@@H]4C3)nn2)C1 [Example 6]", 5.91),
    ("Cc1ccc(-c2cc(C(F)(F)F)c(N[C@H]3C[C@@H]4CN(CC5CCOCC5)C[C@@H]4C3)nn2)c(C)c1 [Example 59]", 7.17),
    ("Cc1ccc(C)c(-c2cc(C(F)(F)F)c(N[C@H]3C[C@@H]4CN(C[C@H]5COCCO5)C[C@@H]4C3)nn2)c1 [Example 72]", 7.28),
    ("Cn1cc2cc(-c3cc(C(F)(F)F)c(N[C@H]4C[C@@H]5CN(C[C@H]6CCOC6)C[C@@H]5C4)nn3)ccc2n1 [Example 33]", 6.73),
    ("CC(C)c1ccc(F)c(-c2cc(C(F)(F)F)c(N[C@H]3C[C@@H]4CN(CC5CCOCC5)C[C@@H]4C3)nn2)c1 [Example 96]", 5.69),
    ("[2H]C([2H])(C1CCOCC1)N1C[C@H]2C[C@H](Nc3nnc(-c4ccc5nn(C)cc5c4)cc3C(F)(F)F)C[C@H]2C1 [Example 18]", 7.53),
    ("Cn1cc2cc(-c3cc(C(F)(F)F)c(N[C@H]4C[C@@H]5CN(CC6COCCO6)C[C@@H]5C4)nn3)ccc2n1 (some centres unmarked) [Example 20]", 7.60),
    ("CCc1ccccc1-c1cc(C(F)(F)F)c(N[C@H]2C[C@@H]3CN(CC4CCOCC4)C[C@@H]3C2)nn1 [Example 85]", 7.37),
    ("CCc1ccc(F)c(-c2cc(C(F)(F)F)c(N[C@H]3C[C@@H]4CN(CC5CCOCC5)C[C@@H]4C3)nn2)c1 [Example 95]", 6.03),
    ("Cc1ccc(F)cc1-c1cc(C(F)(F)F)c(N[C@H]2C[C@@H]3CN(CC4CCOCC4)C[C@@H]3C2)nn1 [compound 11]", 8.62),
    ("CCOc1ccc(F)cc1-c1cc(C(F)(F)F)c(N[C@H]2C[C@@H]3CN(CC4CCOCC4)C[C@@H]3C2)nn1 [Example 73]", 6.70),
    ("[2H]C([2H])(C1CCOCC1)N1C[C@H]2C[C@H](Nc3nnc(-c4cnn(C)c4)cc3C(F)(F)F)C[C@H]2C1 [Example 109]", 7.14),
]
